Value source: patent US20220194999A1

# targetOrTestSystem: T1, HLA-A*02:01 class I complex (conditional p*HLA*02:01, biotinylated heavy chain with beta2-microglobulin) (human, biotinylated heavy chain)
# T1 construct: UV-labile peptide p* is cleaved and exchanged for the test peptide; also called HLA 2.1
# assayComment: UV peptide exchange, HLA class I ELISA, % of Pos peptide;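 also: Streptavidin-captured HLA complexes after exchange detected via HRP anti-human B2M antibody, absorbance read, colour scales with intact complex, normalized to exchange control peptide as 100%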
For each entry below, report its Average % value.
Include the unit right after the number.

As a guide, the following entries are already answered.
| binder | Average % |
| --- | --- |
| YQGSYGFLL (also called M200) [TP53.R110L mutant peptide YQGSYGFLL] | 11.9% |
| SMTCTYFPV (also called M213) [TP53_S127F7 mimic peptide SMTCTYFPV] | 88.4% |
| NMDEYVHNV (also called M111) [SF3B1_R625H5 mimic peptide NMDEYVHNV] | 83.6% |
| SMTCTYFPL (also called M211) [TP53_S127F11 mimic peptide SMTCTYFPL] | 53.5% |
| LLVVGAVGV (also called M071) [KRAS_G12V2 mimic peptide LLVVGAVGV] | 35.9% |

I need Average % for every entry listed below, if you could help.
1. YMDSGIHFL (also called M035) [CTNNB1.S37F10 mimic peptide YMDSGIHFL]
2. GMKDLLNPV (also called M082) [PIK3CA_E453K6 mimic peptide GMKDLLNPV]
3. VMPCEPPEV (also called M232) [TP53_Y220C3 mimic peptide VMPCEPPEV]
4. LLVVGAAGV (also called M051) [KRAS_G12A2 mimic peptide LLVVGAAGV]
5. VMSDAISAL (also called M124; SOX17.S40317) [SOX17.S403I7 mimic peptide VMSDAISAL]
6. CYLYYYSYLI (also called M105) [PTEN.R173C10 mimic peptide CYLYYYSYLI]
7. NMDEYVHNL (also called M113) [SF3B1_R625H9 mimic peptide NMDEYVHNL]
8. CYMYYYSYLI (also called M106) [PTEN.R173C11 mimic peptide CYMYYYSYLI]

Output:
["105%", "77.5%", "60.9%", "33.3%", "77.4%", "23.3%", "58.1%", "4.9%"]

Go through the list and state Average % for each entry.
1. LLGRNSFEI (also called M222) [TP53_V272M3 mimic peptide LLGRNSFEI]
2. GLAPPQYLV (also called M151) [TP53_H193Y5 mimic peptide GLAPPQYLV]
3. ILNREIDFA (also called M090) [PIK3CA.G118D mutant peptide ILNREIDFA]

Output:
66.7%
48.2%
50.4%
